Experiment: soluble fraction after stress (log2 fold change); higher = more stays soluble; pooled small domains, quantitative proteomics
Conditions: stress: pH 4
QUANTITY: soluble fraction (log2)
Answers are plain numbers.

Before answering, review these 2 worked examples.
POLYMER SEQUENCE: HMAMDYEGFKKSVYALTSIDLNAYKERQMKRRIDTLIAKNKYNGYEDYTAAIKKDKALFEEFVNYLTIN
RECORDED NUMBER: -0.521
--
POLYMER SEQUENCE: HMTDWNTVEKETLSAIQKVLSGQASWIDLSPADHSIRHMQHEMVQQAGLISQSYGKEPMRRIRIYQNP
RECORDED NUMBER: -0.036

Record soluble fraction (log2) per entry; entries follow.
1. HMTKLSPKEKSILHIIGDNAGIKSGQIAKRLDIPSPTVKRILSDLVSQNLIEKFGTGPGTNYSI
2. HMEPEAKIDFILKAAQKRLGLYGYEKTTMQEIAADINMSKAALYYYFPDKESLFKAVVENEQEEYFH

-- reply
0.22
-1.24
